Assay system: human DGAT1 (Homo sapiens, UniProt O75907)
Construct: membrane fraction
Sequence (O75907 whole entry): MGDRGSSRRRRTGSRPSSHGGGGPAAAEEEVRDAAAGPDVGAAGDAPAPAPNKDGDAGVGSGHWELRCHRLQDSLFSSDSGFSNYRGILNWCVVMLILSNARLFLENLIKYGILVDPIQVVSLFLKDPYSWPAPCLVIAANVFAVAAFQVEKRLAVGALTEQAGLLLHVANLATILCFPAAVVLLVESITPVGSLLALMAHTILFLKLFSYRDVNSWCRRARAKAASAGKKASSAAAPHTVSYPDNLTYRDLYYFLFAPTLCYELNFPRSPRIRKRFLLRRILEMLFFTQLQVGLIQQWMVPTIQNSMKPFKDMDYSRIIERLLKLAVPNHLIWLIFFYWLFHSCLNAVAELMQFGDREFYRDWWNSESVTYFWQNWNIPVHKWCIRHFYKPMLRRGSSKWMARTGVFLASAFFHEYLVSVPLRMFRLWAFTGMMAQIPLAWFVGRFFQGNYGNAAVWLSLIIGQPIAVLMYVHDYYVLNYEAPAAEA
Experiment summary: Human Enzyme Assay (DGAT1 inhibition)
Conditions used: human DGAT1 expressed in insect cell (sf9) membranes; 14C oleoyl coenzyme A, 1,2 dioleoyl-sn-glycerol, room temperature 30 minutes
A collection of compounds and their measured IC50
Use nM as the unit, but write only the number.

Consider the following illustrative entries.
Compound	IC50 / nM
O=C(O)[C@H]1CC[C@@H](Oc2ccc3nc(-c4nnc(Nc5cc(F)c(F)cc5F)o4)[nH]c3c2F)CC1 [Example 17]	13
N#Cc1ccc(Nc2nnc(-c3nc4cc([C@H]5CC[C@H](CC(=O)O)CC5)ccc4[nH]3)o2)cc1 [Example 4]	19

# input for lookup
**Query** May I ask what IC50 has been recorded for O=C(O)[C@H]1CC[C@H](Oc2ccc3nc(-c4nnc(Nc5cc(F)c(F)cc5F)o4)[nH]c3c2)CC1 [Example 14] ?
**Result** 43

* * *

Assay system: human DGAT1 (Homo sapiens)
Construct: membrane fraction
Experiment summary: Human Enzyme Assay (DGAT1 inhibition)
Conditions used: human DGAT1 expressed in insect cell (sf9) membranes; 14C oleoyl coenzyme A, 1,2 dioleoyl-sn-glycerol, room temperature 30 minutes
Experimental: The in vitro assay to identify DGAT1 inhibitors uses human DGAT1 expressed in insect cell membranes as the enzyme source (Proc. Natl. Acad. Sci. 1998, 95, 13018-13023). […] DGAT1 activity was assayed by a modification of the method described by Coleman (Methods in Enzymology 1992, 209, 98-102). […] DGAT1 activity was quantified by counting aliquots of the upper heptane layer by liquid scintillography.
Attribute measured: pIC50
In textbook form, pIC50 equals minus log to base ten of the concentration in mol/L.

Molecule	pIC50
O=C(O)C[C@H]1CC[C@H](c2ccc3[nH]c(-c4nnc(Nc5cccc(Cl)c5)o4)nc3c2)CC1 [Example 8]	8.10
O=C(O)[C@H]1CC[C@@H](Oc2ccc3nc(-c4nnc(Nc5ccc(F)cc5)o4)[nH]c3c2F)CC1 [Example 15]	7.72
O=C(O)C[C@H]1CC[C@H](c2ccc3[nH]c(-c4nnc(Nc5cccc(OCc6ccccc6)c5)o4)nc3c2)CC1 [Example 3]	8.22
O=C(O)C[C@H]1CC[C@H](c2ccc3[nH]c(-c4nnc(Nc5ccc(F)c(F)c5)o4)nc3c2)CC1 [Example 2]	8.00
O=C(O)[C@H]1CC[C@H](Oc2ccc3nc(-c4nnc(Nc5ccc(F)cc5)o4)[nH]c3c2F)CC1 [Example 16]	7.64
O=C(O)C[C@H]1CC[C@H](c2ccc3[nH]c(-c4nnc(Nc5ccc6c(c5)OCCO6)o4)nc3c2)CC1 [Example 6]	7.27
O=C(O)[C@H]1CC[C@H](Oc2ccc3nc(-c4nnc(Nc5cc(F)c(F)cc5F)o4)[nH]c3c2F)CC1 [Example 18]	7.80
O=C(O)C[C@H]1CC[C@H](c2ccc3[nH]c(-c4nnc(Nc5ccc(Cl)cc5)o4)nc3c2)CC1 [Example 7]	8.70

**Query** # query: pIC50 | item O=C(O)C[C@H]1CC[C@H](c2ccc3[nH]c(-c4nnc(Nc5ccc(F)cc5)o4)nc3c2)CC1 [Example 10] | system: human DGAT1 (Homo sapiens)
**Result** 8.00

**Query** Another molecule: O=C(O)C[C@H]1CC[C@H](c2ccc3[nH]c(-c4nnc(Nc5cc(F)c(F)cc5F)o4)nc3c2)CC1 [Example 1]
**Result** 7.96

The reported measurements were obtained from patent US20090197926A1.
